Molecular target: T1, human GFRAL expressed on cells (human, UniProt Q6UXV0 20-394)
T1 sequence: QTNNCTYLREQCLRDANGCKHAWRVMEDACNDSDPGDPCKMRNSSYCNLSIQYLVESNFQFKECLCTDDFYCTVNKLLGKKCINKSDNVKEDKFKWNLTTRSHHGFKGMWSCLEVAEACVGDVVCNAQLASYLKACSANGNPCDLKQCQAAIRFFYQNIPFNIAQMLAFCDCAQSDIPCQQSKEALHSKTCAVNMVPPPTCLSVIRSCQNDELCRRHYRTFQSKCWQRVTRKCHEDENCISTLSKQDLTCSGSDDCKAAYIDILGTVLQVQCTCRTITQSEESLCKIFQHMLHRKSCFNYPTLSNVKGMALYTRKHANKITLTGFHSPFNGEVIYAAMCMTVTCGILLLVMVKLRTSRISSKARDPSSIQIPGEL
Experiment: cell-based or functional assay
IC50, ERK phosphorylation in U2OS hGFRAL/hRET cells values, listed per item
Express your answer in nM, writing the number without its unit.

antibody designated 2B8 (antibody, V domains shown, mouse hybridoma monoclonal) VH: QIQLVQSGPELKKPGETVKISCKASGYTFTTYGMSWVKQAPGKIFKWMGWINTYSGVPTFVDDFRGRFAFSLETSASTAYLQIGNLKNEDTATYFCARRSSYYPYWYFDVWGTGTTVTVSS VL: DIQMTQSPASLSASVGETVTITCRPSENIYSYLTWFQQEQGKSPQLLVYNAQTLAEGVPSRFSGSGSGTHFSLKINSLQPEDFGTYYCQHYYGYPFTFGSGTKLEIK | 0.22
antibody designated 24G2 (antibody, V domains shown, mouse hybridoma monoclonal) VH: QVQLQQSGAELLKPGASVKLSCKASGYTFTTYWMHWVKQRPGQGLEWIGMIHPNSGSSNYNEKFKNKATLTVDKSSSTAYMQLSSLTSEDSAVYFCARSDYGFIPYFDYWGQGTTLTVSS VL: DILLTQSPAILSVSPGERVSFSCRASQSIGTSIHWYQQRTNGSPRLLIKYASESISGIPSRFSGSGSGTDFTLIINSVESEDIADYYCQQSNSWPTFTFGAGTKLELK | 1.86

Consider the record given below.
Task item: Look up IC50, ERK phosphorylation in U2OS hGFRAL/hRET cells for this binder: antibody designated 12A3 (antibody, V domains shown, mouse hybridoma monoclonal) VH: QIQLVQSGPELKKPGETVKISCKASGYPFTIYGMNWVEQAPGKGLKWMGWINTYSGVPTYADDFKGRFAFSLETSASTAYLQINNLKDEDTATYFCASATGNYWGQGTTLTVSS VL: DIQMTQSPSSLSASLGERVSLTCRASQDIGSSLNWLQQEPDGTIKRLIYATSSLDSGVPKRFSGSRSGSDYSLTISSLESEDFVDYYCLQYASSPYTFGGGTKVEIK
Reply: 0.54
